Test system: BT-549
Assay: NCI tumour cell line growth inhibition, 48 h
Active and inactive are the calls of the source. Rule as the data show it: active = GI50 up to about 1.1 µM and inactive = higher.
Recorded GI50, one value per entry.

[ask] Quick one: give measured GI50 for CCN(CC)CCN1C=CC(C)C(C(=O)O)C1C(N)=O (stereo unspecified)
[reply] > 100 µM (inactive)

[ask] Name the recorded GI50 of the compound listed here: Cc1ccc2nc(-c3ccccc3)c(N=O)n2c1
[reply] 37.1 µM (inactive)

[ask] Supply measured GI50 of CC(CS(=O)(=O)Cc1ccccc1)C(N)=O (stereo unspecified) in your reply.
[reply] > 100 µM (inactive)

[ask] Output GI50 of O=C(N/N=C/C=C/c1ccc([N+](=O)[O-])o1)c1ccc(C(=O)N/N=C/C=C/c2ccc([N+](=O)[O-])o2)cc1
[reply] > 100 µM (inactive)

[ask] Look up and report measured GI50 for this entry: C[n+]1cc2cc(O)c(O)cc2c2ccc3cc(O)c(O)cc3c21.c1ccncc1
[reply] 2.26 µM (inactive)

Further cases:
[ask] Please look at this compound and report its GI50: O=C(O)/C=N\N=c1[nH]c2ccccc2[nH]1
[reply] > 100 µM (inactive)

---

Tested on: CCRF-CEM
Test: NCI tumour cell line growth inhibition, 48 h
Activity calls are given as the source filed them. Rule as the data show it: active = GI50 up to about 1.1 µM and inactive = higher.
The entries below are paired with their reported GI50.

A selection of reference data follows.
[ask] Please give the documented GI50 of O=C1C(=O)N(C(=O)c2ccc(Cl)c(Cl)c2)c2ccccc21
[reply] > 100 µM (inactive)

[ask] Identify measured GI50 associated with Cc1cc2c3c(c1)CCCN3CCC2
[reply] > 10 µM (inactive)

[ask] Return the recorded GI50 value; entry: COC(=O)/C=C1/OC(c2ccccc2)=C(Cl)C1=O
[reply] 5.58 µM (inactive)

[ask] Please give the documented GI50 of COC(=O)C1=C(C)N(NC(=O)c2ccccc2)C(C)(O)C12CCOC2=O (stereo unspecified)
[reply] > 100 µM (inactive)

Further cases:
[ask] For the molecule NNC(=S)N/N=C(\CC1OC(=O)c2ccccc21)c1ccccc1O (stereo unspecified) , report GI50.
[reply] 25.9 µM (inactive)

[ask] Respond only with GI50 recorded for O=c1c2ccccc2nc(N/N=C/c2ccc([N+](=O)[O-])cc2)n1-c1ccccc1
[reply] > 100 µM (inactive)

---

GI50 listing for selected compounds.
Test system: UACC-62
Assay: NCI tumour cell line growth inhibition, 48 h
The source made the active and inactive calls. Rule as the data show it: active = GI50 up to about 1.1 µM and inactive = higher.

Examples with their reported GI50 follow.
[ask] Hello, please tell me recorded GI50 for this one: Fc1ccc(OCc2nc3cc(C(F)(F)F)ccc3nc2-c2ccccc2)cc1
[reply] > 100 µM (inactive)

[ask] Return the recorded GI50 value; entry: CCc1cccc(C)c1NC(=S)NC(=O)c1ccccc1C(=O)NC(=S)Nc1c(C)cccc1CC
[reply] 37.7 µM (inactive)

[ask] Identify the reported GI50 for the following entry. CN(C)c1ccc(/C=C2\C[C@H]3[C@@H]4CC=C5C[C@@H](O)CC[C@]5(C)[C@H]4CC[C@]3(C)C2=O)cc1
[reply] 17.4 µM (inactive)

Further cases:
[ask] Tell us which GI50 value is on record for O[C@H]1[C@@H]2OC[C@@H](O)[C@H](OCc3ccccc3)[C@@](COCc3ccccc3)(O2)[C@@H]1OCc1ccccc1
[reply] 11.4 µM (inactive)

[ask] Using known records, supply GI50 for NCCCCNOCCCN
[reply] > 100 µM (inactive)

[ask] Return the recorded GI50 value; entry: S=C(Nc1ccc2c(c1)oc1ccccc12)c1cccnc1
[reply] 39.5 µM (inactive)

[ask] Give me measured GI50, please, for this compound: CC(=O)OC1CC2CC(=O)CC1N2C (centres undefined)
[reply] > 100 µM (inactive)

[ask] Tell me measured GI50 for Clc1ccc(-c2nnc3sc4nc5ccccc5c-4nn23)c(Cl)c1 please.
[reply] 33.5 µM (inactive)

[ask] Using known records, supply GI50 for COC1C(O)=C2C(=O)OC(C)(O)/C=C/C=C\C=C/C=C/C(c3ccccc3)NC(=O)/C=C/C=C/C=C/C=C/C2(C)C1O (centres undefined)
[reply] 0.114 µM (active)

---

Test system: DMS-273
Test: NCI tumour cell line growth inhibition, 48 h
Calls of active or inactive are those of the source. Rule as the data show it: active = GI50 up to about 1.1 µM and inactive = higher.
endpoint_name: GI50

[ask] Identify measured GI50 associated with COC1C=CC(C(=O)[N+]2=Cc3[nH]c4ccccc4c3CC2)O1 (stereo not given)
[reply] 82.2 µM (inactive)

Further cases:
[ask] Please report GI50 for the following compound: Cc1ccc(/C=C/C(=O)c2ccc(Cl)c(Cl)c2)cc1
[reply] > 100 µM (inactive)

[ask] Please report the measured GI50 for CC(C)(C)CC(C)(C)c1cc2c(O)c(c1)Cc1cc(C(C)(C)CC(C)(C)C)cc(c1O)Cc1cc(C(C)(C)CC(C)(C)C)cc(c1O)Cc1cc(C(C)(C)CC(C)(C)C)cc(c1O)C2
[reply] > 100 µM (inactive)

[ask] Give the measured GI50 for O=C1CCNC(=O)NC1
[reply] > 100 µM (inactive)

[ask] Using known records, supply GI50 for N#CC(NNC(=O)c1ccccc1O)c1c(O)ccc2ccccc12 (stereo not given)
[reply] 2.52 µM (inactive)

[ask] Retrieve GI50 measured for Cc1nc2c(C)c3c([nH]c4ccc(Cl)cc43)c(C)c2c(O)c1C and print it.
[reply] 9.02 µM (inactive)

[ask] Hello, please tell me recorded GI50 for this one: CC1(S)CC2C(CC1Sc1ccccc1)C2(C)C (stereo not given)
[reply] > 100 µM (inactive)

[ask] Provide only the value of recorded GI50 for NCc1ccccc1-c1c2nc(c(-c3ccccc3CN)c3ccc([nH]3)c(-c3ccccc3CN)c3nc(c(-c4ccccc4CN)c4ccc1[nH]4)C=C3)C=C2
[reply] 7.36 µM (inactive)

[ask] Provide GI50 value for the following compound: NNC(=O)/C(=C/c1cccc([N+](=O)[O-])c1)NC(=O)c1ccccc1
[reply] > 100 µM (inactive)

[ask] Indicate the recorded GI50 value for this compound: O=C(O)C1=C(O)C(C(=O)O)C23CCCCCCCCCCC12C(C(=O)O)C(O)=C3C(=O)O (stereo not given)
[reply] > 100 µM (inactive)

[ask] Return value of GI50 for input CN(C)CCS/C(=N\c1ccccc1)N1CCCCC1 , no commentary.
[reply] 16.7 µM (inactive)

[ask] Using the record for O=C1C=Cc2c(-c3ccccc3)oc3cccc1c23 , state its measured GI50.
[reply] 5.98 µM (inactive)

[ask] Please report GI50 for the following compound: CCOC(=O)/C(C#N)=C(O)/C(=C/c1ccccc1Cl)NC(=O)c1ccccc1
[reply] 31.5 µM (inactive)

[ask] Please list GI50 recorded for the compound CCOC(=O)c1cc(C(=O)O)c(=O)n2c1[nH]c1ccccc12
[reply] 56.1 µM (inactive)

[ask] Look up and report measured GI50 for this entry: Cc1c2n(c3ccccc13)CC1CON(C)C21 (stereo not given)
[reply] > 100 µM (inactive)

[ask] Identify measured GI50 corresponding to CC(=O)OCC(=O)[C@@]12OC(C)(C)O[C@@H]1C[C@H]1[C@@H]3CC(C=O)=C4C=C(OCCCl)CC[C@]4(C)[C@@]3(F)[C@@H](O)C[C@@]12C
[reply] 19.9 µM (inactive)

[ask] Given the compound Cc1cccc(C(C)(C)C)c1NC(=O)CCl , write its reported GI50.
[reply] > 100 µM (inactive)

[ask] Please report GI50 for the following compound: Cc1ccc(S(=O)(=O)OC(c2ccc(Cl)cc2Cl)C2OC(=O)c3ccccc32)cc1 (stereo not given)
[reply] 75.5 µM (inactive)

[ask] Provide only the value of recorded GI50 for COc1cccc2c1C(=O)c1c(O)c3c(c(O)c1C2=O)C[C@@](O)(C(=O)CO)C[C@@H]3OC1CC(N(C)C)C(O)C(C)O1 (stereo not given in full)
[reply] < 0.0106 µM (active)

---

Test system: KM12
Assay: NCI tumour cell line growth inhibition, 48 h
Calls of active or inactive are those of the source. Cut-off read from the data, not from the text of the source: active = GI50 up to about 1.1 µM and inactive = higher.
Give one outcome, nothing more. List: active, inactive

Use these answered entries as a reference point.
[ask] Recorded call for COC12c3ccccc3-c3ccccc3C1[C@H]1C(=O)OC(=O)[C@H]12 (stereo not given in full) ?
[reply] inactive

[ask] Per the records of this test, what outcome belongs to CCOC(=O)C1=C(C)NC(c2ccccc2)=C(C(=O)OCc2ccccc2)C1C#Cc1ccccc1 (stereo not given) ?
[reply] inactive

[ask] I would be grateful if you could indicate the recorded call for C/C(=N\NC(=S)N1CCN(c2ccccn2)CC1)c1nccs1 .
[reply] active

More entries:
[ask] Can you look up the reported call for C#CCN(N=O)C(=O)NCCCCC(NC(C)=O)C(=O)NCc1ccccc1 (stereo not given) for me?
[reply] inactive

[ask] Called result for CCCCCCCCCCCCCCCCc1c(O)nc(NN)nc1C(=O)OC
[reply] inactive

[ask] How was CC(=O)N1CC(=O)N2C(=O)/C(=C/c3ccc(Cl)cc3)N=C12 classified in this test?
[reply] inactive
